The binders listed here are annotated with their EC50.
Biological target: T1, human PTK7 on cells (tumor cells endogenously expressing PTK7); CHO-hPTK7, CHO-S-hPTK7 and 293T-hPTK7 … (human, UniProt Q13308 31-1070)
T1 construct: whole, on cells; The cell line of each value is named under assay; also called H1299; H358
T1 sequence (looked up): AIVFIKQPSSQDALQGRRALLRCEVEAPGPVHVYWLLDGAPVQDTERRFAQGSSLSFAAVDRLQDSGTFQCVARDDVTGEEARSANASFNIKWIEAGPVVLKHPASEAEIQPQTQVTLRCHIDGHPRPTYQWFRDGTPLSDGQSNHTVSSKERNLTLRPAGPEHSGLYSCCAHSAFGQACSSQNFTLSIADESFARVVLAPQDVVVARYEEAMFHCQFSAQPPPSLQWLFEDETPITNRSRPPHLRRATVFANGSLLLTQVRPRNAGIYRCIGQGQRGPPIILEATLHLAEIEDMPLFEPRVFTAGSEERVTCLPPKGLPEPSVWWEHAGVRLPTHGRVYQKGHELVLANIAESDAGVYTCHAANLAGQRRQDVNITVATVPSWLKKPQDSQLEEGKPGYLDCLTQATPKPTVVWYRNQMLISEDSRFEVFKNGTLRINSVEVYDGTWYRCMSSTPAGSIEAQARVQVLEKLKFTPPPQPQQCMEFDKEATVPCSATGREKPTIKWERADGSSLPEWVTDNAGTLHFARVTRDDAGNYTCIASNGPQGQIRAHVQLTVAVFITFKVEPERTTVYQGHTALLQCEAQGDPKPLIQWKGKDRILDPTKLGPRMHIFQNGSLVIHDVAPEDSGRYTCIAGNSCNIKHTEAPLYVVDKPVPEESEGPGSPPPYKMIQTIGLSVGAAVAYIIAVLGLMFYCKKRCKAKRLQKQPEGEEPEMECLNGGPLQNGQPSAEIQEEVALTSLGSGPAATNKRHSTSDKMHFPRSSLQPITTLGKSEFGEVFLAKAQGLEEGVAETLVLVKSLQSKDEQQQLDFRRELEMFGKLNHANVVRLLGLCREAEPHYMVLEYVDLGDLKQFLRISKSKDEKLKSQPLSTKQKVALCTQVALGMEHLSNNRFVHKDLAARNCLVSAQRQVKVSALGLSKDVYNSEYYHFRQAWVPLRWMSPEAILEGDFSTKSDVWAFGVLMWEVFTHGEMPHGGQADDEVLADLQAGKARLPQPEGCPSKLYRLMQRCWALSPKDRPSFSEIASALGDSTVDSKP
Test: flow cytometry on H1299 cells
Write the value in µg/mL as a bare number.

Answered cases to consult:
>>> testresult("101A6-CH (anti-human PTK7 chimeric antibody of 101A6) (antibody, human IgG1, kappa, V domains shown, The label '-CH' is not defined in words) VH: EVKLVESGGGLVQPGGSLSLSCAASGFTFTDYYLSWVRQPPGKALEWLALIRNKANGYTTEYSASVKGRFTISRDSSQSILYLQMDALRAEDSATYYCARDTLAAYWGQGTSVTVSS VL: DIVMTQSHKFMSTSVGDRVSFTCKASQDVGSAVIWYQQKPGQSPKLLIYWASTRHTGVPDRFTGSGSGTDFTLTISNVQSEDLADYFCQQYSSYPLTFGAGTKLEIKR")
0.158
>>> testresult("64A10HZ (anti-human PTK7 humanized antibody) (antibody, human IgG1, kappa, V domains shown, Human IgG1 heavy chain constant region and human Kappa light chain constant region; expressed in CHO-S cells) VH: QVQLQESGPGLVKPSETLSLTCTVSGFSLTSYGVYWVRQPPGKGPEWLGVIWTSGNTNYNPSLKSRLTISKDNSKNQVSLKLSSVTAADTAVYYCVKHDGGNYVGVMNYWGQGTLVTVSS VL: EIVMTQSPDFQSVTPKEKVTITCRASQSISDYLHWYQQKPDQSPKLLIKYASQSISGVPSRFSGSGSGSDFTLTINSLEAEDAATYYCQNGHSFPPTFGQGTKLEIKR")
0.0475
>>> testresult("Hu24 (PTK7 control antibody, taken from Hu24 in the Patent CN201580030255) (antibody) chain 1: QVQLVQSGPEVKKPGASVKVSCKASGYTFTDYAVHWVRQAPGKRLEWIGVISTYNDYTYNNQDFKGRVTMTRDTSASTAYMELSRLRSEDTAVYYCARGNSYFYALDYWGQGTSVTVSS chain 2: EIVLTQSPATLSLSPGERATLSCRASESVDSYGKSFMHWYQQKPGQAPRLLIYRASNLESGIPARFSGSGSGTDFTLTISSLEPEDFAVYYCQQSNEDPWTFGGGTKLEIK")
0.0649

Next binder, please.
Data point: 64A10-CH (anti-human PTK7 chimeric antibody of 64A10) (antibody, human IgG1, kappa, V domains shown, The label '-CH' is not defined in words) VH: QVQLKESGPVLVAPSQSLSITCTVSGFSLTSYGVYWVRQPPGKGPEWLGVIWTSGNTNYNSALMSRLSISKDNSKSQVFLKMNSLQTDDTAMYYCVKHDGGNYVGVMNYWGQGTSVTVSS VL: DIQMTQSPATLSVTPGDRVSLSCRASQSISDYLHWYQQKSQESPRLLIKYASQSISGIPSRFSGSGSGSDFTLSINSVEPEDVGVYYCQNGHSFPPTFGGGTKLEIKR ; EC50 = 0.355
